- Assay method text: Solubility in PG/EtOH (96%) at 30 mg/mL after 24 hrs by UV-spectrometric method
- Type: physicochemical
- Setup conditions: PG/EtOH (96%)
Measured property: solubility at 24 h (mM)

Solved entries:
[
  {
    "Compound": "O=C(CCCCCCNc1c(Nc2ccccc2)c(=O)c1=O)NO",
    "solubility at 24 h / mM": 1.8
  },
  {
    "Compound": "O=C(CCCCCNc1c(NCc2ccccc2)c(=O)c1=O)NO",
    "solubility at 24 h / mM": 5.7
  }
]

1: C[C@H](CCCCC(=O)NO)Nc1c(Nc2ccc3cc(C(F)(F)F)[nH]c3c2)c(=O)c1=O
2: O=C(CCCCCNc1c(NC2CCCCC2)c(=O)c1=O)NO
3: CC(C)(CCCCC(=O)NO)Nc1c(Nc2ccc(C(F)(F)F)cc2)c(=O)c1=O
4: Cc1ccc(Nc2c(NC(C)CCCCC(=O)NO)c(=O)c2=O)cc1 (racemic)
5: C[C@H](CCCCC(=O)NO)Nc1c(Nc2ccc(OC(F)(F)F)cc2)c(=O)c1=O
Enquiry: Put the items in sequence by solubility at 24 h, from largest down. Answer by listing the labels in the order asked for.
Return: 5, 3, 1, 2, 4

###

- Assay method text: Solubility in PG/EtOH (96%) at 30 mg/mL after 24 hrs by UV-spectrometric method
- Assay type: physicochemical
- Setup conditions: PG/EtOH (96%)
Measured property: solubility at 24 h (mM)

[
  {
    "Mol smiles": "Cc1ccccc1[C@H](C)Nc1c(NCCCCCC(=O)NO)c(=O)c1=O",
    "Measured property": "solubility at 24 h",
    "Meas value": 47
  }
]

A: Cc1cc2ccc(Nc3c(NCCCCCC(=O)NO)c(=O)c3=O)cc2[nH]1
B: O=C(CCCCNc1c(Nc2ccccc2)c(=O)c1=O)NO
Enquiry: Form: Entry with minimum solubility at 24 h (choose one): A / B Please reply using the label of the selected record.
Return: A
(A: 9.1 mM, B: 32 mM)

###

- Tested system: Polyamine deacetylase HDAC10 (Homo sapiens)
- Sequence (Q969S8 whole entry): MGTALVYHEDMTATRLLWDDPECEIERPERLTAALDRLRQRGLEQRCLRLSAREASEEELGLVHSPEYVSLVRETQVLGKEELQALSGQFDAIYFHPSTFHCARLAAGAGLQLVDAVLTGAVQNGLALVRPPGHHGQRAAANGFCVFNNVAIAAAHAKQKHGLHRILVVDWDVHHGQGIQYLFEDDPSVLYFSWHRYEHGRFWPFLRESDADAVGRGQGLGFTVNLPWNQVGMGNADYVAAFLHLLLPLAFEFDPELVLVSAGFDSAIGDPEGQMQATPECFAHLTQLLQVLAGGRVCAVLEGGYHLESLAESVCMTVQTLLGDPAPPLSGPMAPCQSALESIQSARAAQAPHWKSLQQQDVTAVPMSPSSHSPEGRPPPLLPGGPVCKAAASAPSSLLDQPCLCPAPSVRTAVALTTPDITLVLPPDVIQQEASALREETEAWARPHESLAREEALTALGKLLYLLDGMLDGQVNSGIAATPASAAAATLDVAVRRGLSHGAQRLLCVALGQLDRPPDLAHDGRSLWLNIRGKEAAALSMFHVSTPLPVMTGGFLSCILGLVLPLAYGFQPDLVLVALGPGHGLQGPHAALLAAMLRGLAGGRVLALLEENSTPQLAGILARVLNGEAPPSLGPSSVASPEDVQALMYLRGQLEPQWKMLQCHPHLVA
- Assay method text: Inhibition of human recombinant HDAC10 using fluorogenic HDAC substrate after 45 mins by fluorimetrc method
Measured property: Ki (nM)

[
  {
    "Compound": "CC(Nc1c(NCCCCCC(=O)NO)c(=O)c1=O)C12CC3CC(CC(C3)C1)C2 (centres undefined)",
    "Measured property": "Ki",
    "Meas value": 50
  },
  {
    "Compound": "CC(C)(CCCCC(=O)NO)Nc1c(Nc2ccc(C(F)(F)F)cc2)c(=O)c1=O",
    "Measured property": "Ki",
    "Meas value": 3
  }
]

a: Cn1cc(CNCC2CCN(c3ncc(C(=O)NO)cn3)CC2)c2ccccc21 [QUISINOSTAT]
b: COc1ccc(Nc2c(NCCCCCC(=O)NO)c(=O)c2=O)cc1
Enquiry: Form: Entry with minimum Ki (choose one): a / b Please reply using the label of the selected record.
Return: b
(b: 1.2 nM, a: 4.4 nM)

###

- Tested system: Histone deacetylase 1 (Homo sapiens)
- Sequence (Q13547 whole entry): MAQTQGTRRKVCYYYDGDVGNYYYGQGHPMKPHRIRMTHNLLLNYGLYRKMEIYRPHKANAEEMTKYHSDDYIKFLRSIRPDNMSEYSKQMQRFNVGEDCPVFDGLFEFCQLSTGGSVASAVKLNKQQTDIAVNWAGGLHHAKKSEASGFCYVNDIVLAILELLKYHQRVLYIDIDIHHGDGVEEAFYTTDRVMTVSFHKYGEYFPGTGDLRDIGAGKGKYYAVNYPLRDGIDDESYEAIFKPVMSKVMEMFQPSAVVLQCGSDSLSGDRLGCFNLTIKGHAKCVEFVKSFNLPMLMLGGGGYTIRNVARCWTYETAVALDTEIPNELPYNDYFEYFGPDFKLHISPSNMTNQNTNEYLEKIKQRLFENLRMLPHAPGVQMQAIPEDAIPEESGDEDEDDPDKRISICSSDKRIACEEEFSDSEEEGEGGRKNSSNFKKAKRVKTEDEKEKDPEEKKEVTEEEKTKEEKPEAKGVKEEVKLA
- Assay method text: Inhibition of human recombinant HDAC1 using Fluor de Lys as substrate after 2 hrs by fluorescence method
pKi: −log10 of the molar value.
Measured property: pKi

Solved entries:
[
  {
    "Molecule": "COc1cc(Nc2c(NCCCCCC(=O)NO)c(=O)c2=O)ccc1N(C)C",
    "Tested system": "Histone deacetylase 1 (Homo sapiens)",
    "pKi": 9.30
  },
  {
    "Molecule": "Cc1cc2ccc(Nc3c(NCCCCCC(=O)NO)c(=O)c3=O)cc2[nH]1",
    "Tested system": "Histone deacetylase 1 (Homo sapiens)",
    "pKi": 9.57
  },
  {
    "Molecule": "Cc1ccc([C@H](C)Nc2c(NCCCCCC(=O)NO)c(=O)c2=O)cc1",
    "Tested system": "Histone deacetylase 1 (Homo sapiens)",
    "pKi": 8.64
  },
  {
    "Molecule": "O=C(CCCCCNc1c(Nc2ccc(C(F)(F)F)cc2)c(=O)c1=O)NO",
    "Tested system": "Histone deacetylase 1 (Homo sapiens)",
    "pKi": 9.64
  },
  {
    "Molecule": "CC(C)(CCCCC(=O)NO)Nc1c(Nc2ccc(C(F)(F)F)cc2)c(=O)c1=O",
    "Tested system": "Histone deacetylase 1 (Homo sapiens)",
    "pKi": 9.57
  },
  {
    "Molecule": "C[C@@H](CCCCC(=O)NO)Nc1c(Nc2ccc(N(C)C)cc2)c(=O)c1=O",
    "Tested system": "Histone deacetylase 1 (Homo sapiens)",
    "pKi": 8.37
  }
]

A: O=C(CCCCCNc1c(NC2CCCCC2)c(=O)c1=O)NO
B: CC(Nc1c(NCCCCCC(=O)NO)c(=O)c1=O)C12CC3CC(CC(C3)C1)C2 (stereo not given)
C: CC(CCCCC(=O)NO)Nc1c(Nc2ccc(C(F)(F)F)cc2)c(=O)c1=O (racemic)
D: O=C(CCCCNc1c(Nc2ccccc2)c(=O)c1=O)NO
Enquiry: // smallest pKi at index 0, largest at the end Answer by listing the labels in the order asked for.
Return: D, B, A, C
